test: Fraction unbound in iv dosed C57Bl/6JRccHsd mouse plasma measured at 160 mins post dose pretreated with 50 umol/kg, ip prolyl oligopeptidase inhibitor KYP-2047 10 mins before compound dosing by SPECT analysis; type: ADME, organism-based
ENDPOINT: fraction unbound at 160 min
Respond with the number and no other words.

QUERY: Quick one: fraction unbound at 160 min of N#C[C@@H]1CCCN1C(=O)[C@@H]1CCCN1C(=O)CCCc1ccc([123I])cc1 ?
RESULT: 0.58

* * *

test: Fraction unbound in iv dosed C57Bl/6JRccHsd mouse plasma measured at 20 mins; type: ADME, organism-based
ENDPOINT: fraction unbound at 20 min

QUERY: Quick one: fraction unbound at 20 min of N#C[C@@H]1CCCN1C(=O)[C@@H]1CCCN1C(=O)CCCc1ccc([123I])cc1 ?
RESULT: 0.03
